Sourced from patent US20210393565A1

Quick reference: Extracellular concentration of PUFA oxygenation product of the listed items.
- Tested on: Bacillus megaterium DSM 33296 cells
- Experiment Notes: Lipidometabolomics of culture supernatants with AvailOm dispersion formulation
- Type: cell-based
- Setup Conditions: Bacillus megaterium DSM 33296, AvailOm dispersion formulation; net concentration
Note: unit pg/mL is implicit; provide only the numeric part.

Incoming: Give its Extracellular concentration of PUFA oxygenation product value. Item: `CC/C=C\C[C@H](O)[C@H](O)/C=C/C=C/C=C\C=C\[C@@H](O)C/C=C\CCC(=O)O`
Outgoing: 265

Incoming: Also check CCC(O)/C=C/C=C\C/C=C\C/C=C\C/C=C\CCCC(=O)O (stereo not drawn) [18-HEPE, 18-hydroxy-eicosapentaenoic acid]
Outgoing: 391397

Incoming: And CC/C=C\CC(O)/C=C/C=C\C/C=C\C/C=C\CCCC(=O)O (stereo not drawn) [15-HEPE, 15-hydroxy-eicosapentaenoic acid] ?
Outgoing: 256797

Incoming: Note, next up: `CCCCC/C=C\C[C@@H](O)/C=C/C=C/C=C\[C@@H](O)CCCC(=O)O`
Outgoing: 1769

---
Incoming: Quick one: Extracellular concentration of PUFA oxygenation product for CC/C=C\C/C=C\C/C=C\C/C=C\C=C\C(O)C/C=C\CCC(=O)O (stereo not drawn) [7-HDHA, 7-hydroxy-DHA] ?
Outgoing: 202129

Incoming: What do you have for `CC/C=C\C[C@H](O)/C=C/C=C\C[C@@H](O)/C=C/C=C/C=C\[C@@H](O)CCC(=O)O` ?
Outgoing: 381

====

- System: Bacillus megaterium DSM 32963 cells
- Experiment Notes: Lipidometabolomics (UPLC-MS/MS) of culture supernatants with AvailOm, dissolved or as dispersion
- Assay type: cell-based
- Setup Conditions: − bile acids, AvailOm; net after subtraction of cell-free control
Recorded Extracellular concentration of PUFA oxygenation product, one value per entry.
Your answer should be a number followed by the unit of measure.

Incoming: Param item = CCC=CCC=CCC=CCC=CC=CC(O)CCCC(=O)O (centres unmarked) [5-HEPE, 5-hydroxy-eicosapentaenoic acid] ; retrieve measured Extracellular concentration of PUFA oxygenation product.
Outgoing: 2253 pg/mL

Incoming: Follow-up item: CC/C=C\CC(O)/C=C/C=C\C/C=C\C/C=C\CCCC(=O)O (centres unmarked) [15-HEPE, 15-hydroxy-eicosapentaenoic acid]
Outgoing: 7536 pg/mL

Incoming: And the next one, `CCCCC/C=C\C[C@@H](O)/C=C/C=C/C=C/[C@@H](O)CCCC(=O)O` ?
Outgoing: 360 pg/mL

Incoming: Then CC/C=C\C[C@H](O)\C=C/C=C/C=C/[C@H](O)C/C=C\C/C=C\CCC(=O)O [PD1 1, protectin D1] ?
Outgoing: 113 pg/mL

Incoming: # iterate: `CC/C=C\C[C@H](O)/C=C/C=C\C[C@@H](O)/C=C/C=C/C=C\[C@@H](O)CCC(=O)O`
Outgoing: 178 pg/mL

Incoming: Note, next up: `CC/C=C\C[C@H](O)[C@@H](O)/C=C/C=C/C=C\C=C\[C@@H](O)CCCC(=O)O`
Outgoing: 2376 pg/mL

Incoming: Moving on to `CCCCC/C=C\C[C@@H](O)/C=C/C=C/C=C\[C@@H](O)CCCC(=O)O`
Outgoing: 171 pg/mL

Incoming: Same again, this time with `CC/C=C\C[C@@H](O)/C=C/C=C\C=C\C=C\[C@@H](O)[C@@H](O)C/C=C\CCC(=O)O`
Outgoing: 519 pg/mL

Incoming: // query: `CC/C=C\C/C=C\C[C@H](O)[C@H](O)/C=C/C=C/C=C\C/C=C\CCC(=O)O`
Outgoing: 120 pg/mL

Incoming: Thanks! And CC/C=C\C[C@H](O)/C=C\C=C\C/C=C/C=C/C=C/C(O)[C@@H](O)CCC(=O)O (some centres unmarked) ?
Outgoing: 3681 pg/mL

Field: next compound
Incoming: Record request: Extracellular concentration of PUFA oxygenation product value, item `CC/C=C\C[C@H](O)[C@H](O)/C=C/C=C/C=C\C=C\[C@@H](O)C/C=C\CCC(=O)O`
Outgoing: 87 pg/mL

====

- System: Bacillus megaterium DSM 33296 cells
- Experiment Notes: Lipidometabolomics of culture supernatants with AvailOm dispersion formulation
- Assay type: cell-based
- Setup Conditions: Bacillus megaterium DSM 33296, AvailOm dispersion formulation; net concentration
Property Label: Extracellular concentration of PUFA oxygenation product (pg/mL)
Field: numeric (pg/mL). Do not append units.

Solved cases (5 shown):
Incoming: Quick check: Extracellular concentration of PUFA oxygenation product of CC/C=C\C/C=C\C[C@H](O)[C@H](O)/C=C/C=C/C=C\C/C=C\CCC(=O)O [MaR2, maresin 2] ?
Outgoing: 1522

Incoming: Please answer likewise for CCCCC/C=C\C[C@@H](O)/C=C/C=C/C=C/[C@@H](O)CCCC(=O)O [t-LTB4]
Outgoing: 1780

Incoming: Can you check CC[C@@H](O)/C=C/C=C\C[C@@H](O)/C=C/C=C/C=C\[C@@H](O)CCCC(=O)O [RvE1, resolvin E1] next?
Outgoing: 5840

Incoming: Repeat for the following compound: CC/C=C\C[C@H](O)/C=C/C=C\C/C=C\C=C\[C@@H](O)C/C=C\CCC(=O)O [RvD5]
Outgoing: 15079

Incoming: Ok, now CC[C@H](O)C(O)/C=C/C=C/C=C\C/C=C\C/C=C\CCCC(=O)O (stereo partly drawn) [RvE3, resolvin E3]
Outgoing: 1322555

Others:
Incoming: Please report the recorded Extracellular concentration of PUFA oxygenation product for CC/C=C\C[C@@H](O)/C=C/C=C\C=C\C=C\[C@@H](O)[C@@H](O)C/C=C\CCC(=O)O [AT-RvD1, Aspirin-triggered RvD1] .
Outgoing: 9612

====

Extracellular concentration of PUFA oxygenation product overview
- System: Bacillus megaterium DSM 32963 cells
- Experiment Notes: Lipidometabolomics (UPLC-MS/MS) of culture supernatants with AvailOm, dissolved or as dispersion
- Type: cell-based
- Setup Conditions: − bile acids, AvailOm; net after subtraction of cell-free control
Your reply should be a number followed by the unit it is expressed in.

In the examples that follow, each entry is paired with its recorded Extracellular concentration of PUFA oxygenation product.
Incoming: // lookup Extracellular concentration of PUFA oxygenation product for `CC/C=C\C[C@H](O)/C=C/C=C\C/C=C\C=C\[C@@H](O)C/C=C\CCC(=O)O`
Outgoing: 68 pg/mL

Incoming: Entry to check: `CC/C=C\C[C@H](O)/C=C/C=C\C=C\[C@@H](O)C/C=C\C/C=C\CCC(=O)O`
Outgoing: 109 pg/mL

Incoming: Record: `CC/C=C\C/C=C\C[C@H](O)\C=C/C=C/C=C/[C@H](O)C/C=C\CCC(=O)O`
Outgoing: 114 pg/mL

Incoming: Query `CC/C=C\C[C@H](O)/C=C/C=C\C=C\C=C\[C@@H](O)[C@@H](O)CCCC(=O)O` next
Outgoing: 7767 pg/mL

Incoming: Another molecule to check: `CC/C=C\C[C@@H](O)\C=C/C=C/C=C/[C@H](O)C/C=C\C/C=C\CCC(=O)O`
Outgoing: 96 pg/mL

More entries:
Incoming: Name the recorded Extracellular concentration of PUFA oxygenation product for CCC(O)/C=C/C=C\C/C=C\C/C=C\C/C=C\CCCC(=O)O (stereo not shown) [18-HEPE, 18-hydroxy-eicosapentaenoic acid] .
Outgoing: 24463 pg/mL

Incoming: // same read-out, input: CC[C@@H](O)/C=C/C=C\C[C@@H](O)/C=C/C=C/C=C\[C@@H](O)CCCC(=O)O [RvE1, resolvin E1]
Outgoing: 88 pg/mL

====

We begin with a simple list: items and their reported Extracellular concentration of PUFA oxygenation product.
- Tested on: Bacillus megaterium DSM 33296 cells
- Experiment Notes: Lipidometabolomics of culture supernatants with AvailOm dispersion formulation
- Assay type: cell-based
- Setup Conditions: Bacillus megaterium DSM 33296, AvailOm dispersion formulation; net concentration
# number only, unit pg/mL dropped from output

Incoming: Request the reported Extracellular concentration of PUFA oxygenation product associated with CC/C=C\C[C@H](O)/C=C/C=C\C=C\C=C\[C@@H](O)[C@@H](O)CCCC(=O)O [LXA5, lipoxin A5]
Outgoing: 4693

New cases:
Incoming: Please look up its Extracellular concentration of PUFA oxygenation product: CC/C=C\C/C=C\C[C@H](O)\C=C/C=C/C=C/[C@H](O)C/C=C\CCC(=O)O [MaR1, maresin 1]
Outgoing: 1161

Incoming: Another: CC/C=C\C[C@@H](O)\C=C/C=C/C=C/[C@H](O)C/C=C\C/C=C\CCC(=O)O [AT-PD1 1, Aspirin-triggered PD1]
Outgoing: 4558

Incoming: Same read-out for CCCCC[C@H](O)/C=C/C=C\C=C\C=C\[C@@H](O)[C@@H](O)CCCC(=O)O [LXA4, lipoxin A4] ?
Outgoing: 1157

Incoming: How about this molecule: CC/C=C\C[C@H](O)\C=C/C=C/C=C/[C@H](O)C/C=C\C/C=C\CCC(=O)O [PD1 1, protectin D1]
Outgoing: 99029

Incoming: What would you report for CC/C=C\C[C@H](O)/C=C/C=C\C=C\[C@@H](O)C/C=C\C/C=C\CCC(=O)O [PDX 1] ?
Outgoing: 78345

Incoming: Try CCCCC/C=C\C/C=C\C=C\C(O)C/C=C\CCCC(=O)O (stereo not drawn) [8-HETE, 8-hydroxy-eicosatetraenoic acid] next.
Outgoing: 24207

Incoming: CCC=CCC=CCC=CCC=CC=CC(O)CCCC(=O)O (stereo not drawn) [5-HEPE, 5-hydroxy-eicosapentaenoic acid] , same question.
Outgoing: 395188

Incoming: Next: CC/C=C\C[C@H](O)/C=C\C=C\C/C=C/C=C/C=C/C(O)[C@@H](O)CCC(=O)O (stereo partly drawn) [RvD4]
Outgoing: 1986
